test system: MDA-MB-435; experiment: NCI tumour cell line growth inhibition, 48 h
Calls of active or inactive are those of the source. Cut-off read from the data, not from the text of the source: active = GI50 up to about 1.1 µM and inactive = higher.
READOUT KIND: GI50

Consider the reported GI50 for these molecules:
{"MOLECULE": "O=C(Nc1nnc(-c2c(Cl)c(Cl)c(Cl)c(Cl)c2-c2nc3cc(C(=O)c4ccccc4)ccc3[nH]2)o1)c1ccccc1", "TARGET DESC": "MDA-MB-435", "GI50": "3.89 µM (inactive)"}
{"MOLECULE": "COc1ccc(/N=C(C)/C(C)=N/c2ccc(OC)cc2)cc1", "TARGET DESC": "MDA-MB-435", "GI50": "8.95 µM (inactive)"}
{"MOLECULE": "Oc1ccc2c3c1OC1c4[nH]c5c(c4CC4(O)C(C2)N(CC2CC2)CC[C@]314)CC1(O)C2Cc3ccc(O)c4c3[C@@]1(CCN2CC1CC1)C5O4 (some centres undefined)", "TARGET DESC": "MDA-MB-435", "GI50": "19.9 µM (inactive)"}

Reported GI50 for Nc1nc(O)c2nc(CNc3ccc(C(=O)NC(CCC(=O)O)C(=O)O)cc3)cnc2n1 (centres undefined) was > 100 µM (inactive)

What the record says about CN(C)c1ccc2nc3c(C(=O)O)cc(O)c(O)c3[o+]c2c1 : GI50 is 21.2 µM (inactive)

# GI50 (molecule: CC(CCc1ccccc1)NCC(O)n1c(/N=N/N(C)C)nc2c1c(=O)n(C)c(=O)n2C (centres undefined) ) is > 100 µM (inactive)

The recorded GI50 for entry O=C(O)C1CC(c2ccccc2)=NN1c1ccccc1 (centres undefined) equals 63.4 µM (inactive)

Reported GI50 ( Cc1ccc2c(c1)C/C(=C\c1ccccc1C(=O)O)C2=O ) = > 100 µM (inactive)

// sample Cc1cc(=O)n2c3c(c4c(cc13)c(CN(C)C)cc(=O)n4C)OC2 , its GI50 was 20.9 µM (inactive)

----------
test system: SK-MEL-5; assay: NCI tumour cell line growth inhibition, 48 h
The source made the active and inactive calls. Cut-off read from the data, not from the text of the source: active = GI50 up to about 1.1 µM and inactive = higher.
Outcome field: choose from active, inactive

{"COMPOUND": "FC(F)(F)c1nc(-c2ccccc2)oc1Sc1nnc(Sc2oc(-c3ccccc3)nc2C(F)(F)F)s1", "ASSIGNED CLASS": "inactive"}
{"COMPOUND": "COC(=O)[C@@]12C3=NO[C@]1(C(=O)OC)C(O[Si](C)(C)C(C)(C)C)[C@@H](OC(C)=O)[C@@H](OC(C)=O)[C@@H]2[C@@H](OCc1ccccc1)CC3 (stereo not given in full)", "ASSIGNED CLASS": "inactive"}

Prompt line: Tell me the recorded outcome of this test for COc1cc2cc(C(=O)N3CC(CCl)c4ccc(O)cc43)[nH]c2c(OC)c1OC (stereo not given) .
Response line: active

Prompt line: Just curious, what result did CCOC(=O)C(=O)Nc1ccccc1OCC get here?
Response line: inactive

Prompt line: I'd appreciate the recorded outcome for COC1=CC(=O)C2C(C1=O)[C@@H]1c3ccccc3C[C@H]21 (stereo not given in full) from this test.
Response line: inactive

----------
tested on: HOP-92; assay: NCI tumour cell line growth inhibition, 48 h
Activity calls are given as the source filed them. Rule as the data show it: active = GI50 up to about 1.1 µM and inactive = higher.
READOUT KIND: GI50

Sample records with GI50:
{"COMPOUND": "O=C(Nc1nnc(-c2c(Cl)c(Cl)c(Cl)c(Cl)c2-c2nc3cc(C(=O)c4ccccc4)ccc3[nH]2)o1)c1ccccc1", "READOUT KIND": "GI50", "RESULT": "15.5 µM (inactive)"}
{"COMPOUND": "CCOC(=O)c1cc(Br)c(-c2cc(C)no2)[nH]1", "READOUT KIND": "GI50", "RESULT": "29.9 µM (inactive)"}
{"COMPOUND": "Cc1cccc(/C=N/NC(=S)NCCc2ccccn2)n1", "READOUT KIND": "GI50", "RESULT": "22.3 µM (inactive)"}
{"COMPOUND": "CN(C)c1nc2oc(-c3ccccc3)c(-c3ccccc3)c2c2nnnn12", "READOUT KIND": "GI50", "RESULT": "> 100 µM (inactive)"}
{"COMPOUND": "Cc1c(C(=O)CSc2nc3ccccc3c(=O)n2-c2ccccc2)c(=O)n(-c2ccccc2)n1C", "READOUT KIND": "GI50", "RESULT": "24.3 µM (inactive)"}

Looking up CC(=O)NNC1=NN(C(C)=O)C2(S1)C(=O)Nc1ccc(Br)cc12 (stereo not given) , I see its GI50 listed as 65.5 µM (inactive)

Query CC(C)(Oc1ccc(C(=O)c2ccc(Cl)cc2)cc1Cl)C(=O)N1CCN(c2ccccc2)CC1 yields GI50 of > 100 µM (inactive)

Lab book: GI50 of CCn1c(=O)c2cn[nH]c2n(C)c1=O noted as > 100 µM (inactive)

Entry O=c1oc2ccccc2cc1/C=N/N1C(=S)N(c2ccccc2)C(=N\c2ccccc2)/C1=N/c1ccccc1 ; GI50 = > 100 µM (inactive)

Record O=C1C=C(Nc2cccnc2)c2ccccc2/C1=N/O , field GI50: 21.8 µM (inactive)
